All figures here come from paper PMC7866087.

# System: TWEAK-Fn14 signalling pathway, BRV5 cells
# Method Description: Cell-based screening of individual peptides, gene expression microarray in TWEAK-stimulated BRV5 cells
# Design: species or system human
# Condition Set: individual peptides, BRV5 + TWEAK, 450 µM, 6 h; replicate column 2
Overview of recorded HSP90B1 mRNA expression (normalized to NARS2) for various substances
// return just the number, without any unit appended

- Substance: "TKGGGTADA [Peptide 3]"
  Assay System: "TWEAK-Fn14 signalling pathway, BRV5 cells"
  Test Result: 4.045
- Substance: "13: YSGYFGGFY [Peptide 13]"
  Assay System: "TWEAK-Fn14 signalling pathway, BRV5 cells"
  Test Result: 2.131
- Substance: "1: GNGTDDNSGTSY [Peptide 1]"
  Assay System: "TWEAK-Fn14 signalling pathway, BRV5 cells"
  Test Result: 2.001
- Substance: "46: TGYAENV [Peptide 46]"
  Assay System: "TWEAK-Fn14 signalling pathway, BRV5 cells"
  Test Result: 2.3087
- Substance: "30: DNGGGNTDIYSE [Peptide 30]"
  Assay System: "TWEAK-Fn14 signalling pathway, BRV5 cells"
  Test Result: 1.9206

Lookup: May I ask what HSP90B1 mRNA expression (normalized to NARS2) has been recorded for SGVSTAQLD [Peptide 4] ?
Found: 2.538

Lookup: What would you report for SWYDHMAGDSSY [Peptide 35] ?
Found: 1.664

Lookup: What would you report for 42: YNGHVKDD [Peptide 42] ?
Found: 2.8231

Lookup: What would you report for 11: SGVAYQETT [Peptide 11] ?
Found: 2.704
